Molecular target: UniProtKB P35367
Sequence (P35367 whole entry): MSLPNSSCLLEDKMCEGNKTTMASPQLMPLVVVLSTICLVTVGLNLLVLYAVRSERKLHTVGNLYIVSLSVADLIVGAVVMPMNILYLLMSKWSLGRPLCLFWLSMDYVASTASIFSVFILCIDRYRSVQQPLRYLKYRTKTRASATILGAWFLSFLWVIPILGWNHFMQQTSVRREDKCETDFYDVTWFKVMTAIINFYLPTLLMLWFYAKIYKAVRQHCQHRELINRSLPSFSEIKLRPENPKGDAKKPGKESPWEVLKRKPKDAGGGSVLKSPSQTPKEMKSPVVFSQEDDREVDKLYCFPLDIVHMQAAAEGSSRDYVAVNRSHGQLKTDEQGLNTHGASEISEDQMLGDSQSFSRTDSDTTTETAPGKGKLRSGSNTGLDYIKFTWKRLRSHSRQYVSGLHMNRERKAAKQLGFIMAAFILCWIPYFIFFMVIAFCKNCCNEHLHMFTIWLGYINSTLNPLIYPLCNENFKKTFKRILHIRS
VALUE KIND: AC50

Examples with their reported AC50 follow.
- O=C(O)c1ccccc1Nc1cc(Cl)ccc1C(=O)O [LOBENZARIT]: > 30 µM
- CC(=O)O[C@]1(C(C)=O)CC[C@H]2[C@@H]3C=C(C)C4=CC(=O)CC[C@@H]4[C@H]3CC[C@@]21C [NOMEGESTROL ACETATE]: > 30 µM
- CNCc1ccc(-c2[nH]c3cc(F)cc4c3c2CCNC4=O)cc1 [RUCAPARIB]: > 10 µM
- C[C@]12C=CC(=O)N[C@@H]1CC[C@@H]1[C@@H]2CC[C@]2(C)[C@@H](C(=O)Nc3cc(C(F)(F)F)ccc3C(F)(F)F)CC[C@@H]12 [DUTASTERIDE]: > 10 µM
- CC(C)COCC(CN(Cc1ccccc1)c1ccccc1)N1CCCC1 (centres undefined) [BEPRIDIL]: 8.6 µM
- C[C@@H](Oc1cc(-c2cnn(C3CCNCC3)c2)cnc1N)c1c(Cl)ccc(F)c1Cl [CRIZOTINIB]: > 30 µM
- Clc1ccc(C(Cn2ccnc2)OCc2ccsc2Cl)c(Cl)c1 (centres undefined) [TIOCONAZOLE]: > 30 µM
- CN(C(=O)c1c(O)c2ccccc2n(C)c1=O)c1ccccc1 [ROQUINIMEX]: > 30 µM

Continue with the next molecule.
-- ask # input molecule: C#CCOc1ccc(N)cc1C(=O)NCCCC [PARSALMIDE] ; wanted: its AC50
-- reply > 30 µM
